So I've got a bunch of compounds here, and I need their pest or weed control at 500 ppm values.
- Test system: Nilaparvata lugens
- assay_procedure: Test Example 9: foot drench of rice seedling, twenty first instar larvae of Nilaparvata lugens
- Assay type: in vivo
- measurement_conditions: soil, 144 h, 5 ml drench at foot of rice seedling, kept 7 days, twenty first instar larvae released, further 6 days

>>> reported_measurement("COCCc1cnccc1-c1nc2cc(C(F)(F)F)cnc2n1C")
"≥ 90%"

Please give pest or weed control at 500 ppm for each item listed below.
1. Cn1c(-c2cc[n+]([O-])cc2F)nc2cc(C(F)(F)F)ccc21
2. CC[S+]([O-])c1cnccc1-c1nc2cc(C(F)(F)F)ccc2n1C1CC1 (stereo not drawn)

[out]
1: ≥ 90%; 2: ≥ 90%

These entries and their values trace back to patent US8461181B2.
